System Tested: cortical CCK receptor (Cavia porcellus)
Construct: Cortical and pancreatic membranes were prepared as described; from tissue; host or cells: guinea pig cerebral cortex membranes
Procedure Details: Radioligand binding ([125I]Bolton-Hunter CCK8) in guinea pig cerebral cortical membranes
Experimental Conditions: displacement of [125I]BH-CCK8, cortical membranes, 30°C for 150 min, Hill analysis; read-out: IC₅₀ (nM) cortex
Square brackets hold non-standard residues; d marks the D form. Peptide text beside a SMILES is read from it. * marks the point of attachment. 1Nal = N[C@@H](Cc1cccc2ccccc12)C(=O)O; Cha = N[C@@H](CC1CCCCC1)C(=O)O; NMeL = CN[C@@H](CC(C)C)C(=O)O; Cbz = O=C(OCc1ccccc1)*; Boc = CC(C)(C)OC(=O)*
Measured Parameter: IC50 (nM)
Give the value, in units of nM, as a plain number.

CCC[C@H]1CCN(C(=O)[C@@H]2Cc3c[nH]c4cccc(c34)CC(=O)N2)[C@@H]1C(=O)N[C@@H](CC(=O)O)C(=O)N[C@@H](CC1CCCCC1)C(N)=O :: 0.9
CC(C)C[C@H](NC(=O)[C@H](Cc1c[nH]c2ccccc12)NC(=O)OC(C)(C)C)C(=O)N[C@@H](CC(=O)O)C(=O)N[C@@H](Cc1c[nH]c2ccccc12)C(N)=O [Example 42, Boc-Trp-Leu-Asp-Trp-NH₂] (Boc-WLDW-NH2) :: 13
CC(C)C[C@H](NC(=O)[C@H](Cc1c[nH]c2ccccc12)NC(=O)OC(C)(C)C)C(=O)N[C@@H](CC(=O)O)C(=O)N[C@@H](CC1CCCCC1)C(N)=O [Example 43, Boc-Trp-Leu-Asp-Cha-NH₂] (Boc-WLD[Cha]-NH2) :: 170
CC(C)C[C@@H](C(=O)N[C@@H](CC(=O)O)C(=O)N[C@@H](Cc1ccccc1)C(N)=O)N(C)C(=O)[C@H](Cc1c[nH]c2ccccc12)NC(=O)OCc1ccccc1 [Example 15, Cbz-Trp-(NMe)Leu-Asp-Phe-NH₂] (Cbz-W[NMeL]DF-NH2) :: 5
CC(C)C[C@H](NC(=O)[C@@H]1Cc2c[nH]c3cccc(c23)CC(=O)N1)C(=O)N[C@@H](CC(=O)O)C(=O)NC(=Cc1ccccc1)C(N)=O [Example 23, Ctp-Leu-Asp-(dehydro)Phe-NH₂] :: 16

[Q] # lookup: IC50 of CC(C)C[C@H](NC(=O)[C@@H]1Cc2c[nH]c3cccc(c23)CC(=O)N1)C(=O)N[C@@H](CC(=O)O)C(=O)N[C@@H](Cc1ccccc1)C(N)=O
[A] 2.5

[Q] # lookup: IC50 of CCC[C@H]1CCN(C(=O)[C@H](Cc2c[nH]c3ccccc23)NC(=O)OC(C)(C)C)[C@@H]1C(=O)N[C@@H](CC(=O)O)C(=O)N[C@@H](Cc1ccccc1)C(N)=O
[A] 1.2

[Q] # lookup: IC50 of CCC[C@H]1CCN(C(=O)[C@@H]2Cc3c[nH]c4cccc(c34)CC(=O)N2)[C@@H]1C(=O)N[C@@H](CC(=O)O)C(=O)N[C@@H](Cc1ccc2ccccc2c1)C(N)=O
[A] 1.9

[Q] # lookup: IC50 of CC(C)C[C@H](NC(=O)[C@H](Cc1c[nH]c2ccccc12)NC(=O)OC(C)(C)C)C(=O)N[C@@H](CC(=O)O)C(=O)N[C@@H](Cc1cccc2ccccc12)C(N)=O [Example 45, Boc-Trp-Leu-Asp-α-Nal-NH₂] (Boc-WLD[1Nal]-NH2)
[A] 12

---

System Tested: CCK-B receptors on small cell lung cancer cell lines (Homo sapiens, UniProt P32239)
Construct: endogenous in cells; host or cells: NCI-H345 and H209 small cell lung cancer cells
Sequence (P32239 whole entry): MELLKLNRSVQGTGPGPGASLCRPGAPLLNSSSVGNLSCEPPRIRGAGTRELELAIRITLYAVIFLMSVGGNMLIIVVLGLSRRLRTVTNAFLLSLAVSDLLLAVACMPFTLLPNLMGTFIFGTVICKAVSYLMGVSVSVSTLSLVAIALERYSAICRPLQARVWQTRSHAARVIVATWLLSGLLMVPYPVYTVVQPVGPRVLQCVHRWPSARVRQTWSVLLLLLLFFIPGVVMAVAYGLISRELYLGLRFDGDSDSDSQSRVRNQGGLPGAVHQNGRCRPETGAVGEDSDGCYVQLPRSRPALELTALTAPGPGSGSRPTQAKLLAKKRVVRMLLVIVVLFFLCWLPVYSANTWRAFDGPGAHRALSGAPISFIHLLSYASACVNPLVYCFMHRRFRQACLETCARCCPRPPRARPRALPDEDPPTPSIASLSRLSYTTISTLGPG
Procedure Details: Measurement of [Ca++]i changes in NCI-H345 and H209 cell lines (indo-1 fluorescence)
Format: cell-based
Experimental Conditions: read-out: Intrinsic Activity Relative to CCK-8
Square brackets hold non-standard residues; d marks the D form. Peptide text beside a SMILES is read from it. * marks the point of attachment. 2Nal = N[C@@H](Cc1ccc2ccccc2c1)C(=O)O; Boc = CC(C)(C)OC(=O)*
Measured Parameter: Emax
Please answer using the number first and the unit second.

Some compounds with known Emax results, for comparison:
CC(C)C[C@H](NC(=O)[C@@H]1Cc2c[nH]c3cccc(c23)CC(=O)N1)C(=O)N[C@@H](CC(=O)O)C(=O)N(C)[C@@H](Cc1ccccc1)C(N)=O :: 96%
CCC[C@H]1CCN(C(=O)[C@@H]2Cc3c[nH]c4cccc(c34)CC(=O)N2)[C@@H]1C(=O)N[C@@H](CC(=O)O)C(=O)N(C)[C@@H](Cc1ccccc1)C(N)=O :: 100%
CCC[C@H]1CCN(C(=O)[C@@H]2Cc3c[nH]c4cccc(c34)CC(=O)N2)[C@@H]1C(=O)N[C@@H](CC(=O)O)C(=O)N[C@@H](Cc1ccccc1)C(N)=O :: 103%
CCC[C@H]1CCN(C(=O)[C@@H]2Cc3c[nH]c4cccc(c34)CC(=O)N2)[C@@H]1C(=O)N[C@@H](CC(=O)O)C(=O)N[C@@H](Cc1cccc2ccccc12)C(N)=O :: 109%
CC(C)C[C@H](NC(=O)[C@H](Cc1c[nH]c2ccccc12)NC(=O)OC(C)(C)C)C(=O)N[C@@H](CC(=O)O)C(=O)N[C@@H](Cc1ccc2ccccc2c1)C(N)=O [Example 44, Boc-Trp-Leu-Asp-β-Nal-NH₂] (Boc-WLD[2Nal]-NH2) :: 104%

Please turn your attention to the following entry.
[Q] # lookup: Emax of CCC[C@H]1CCN(C(=O)[C@@H]2Cc3c[nH]c4cccc(c34)CC(=O)N2)[C@@H]1C(=O)N[C@@H](CC(=O)O)C(=O)N[C@@H](Cc1ccc2ccccc2c1)C(N)=O
[A] 100%

---

System Tested: cortical CCK receptor (Cavia porcellus, UniProt H0VZC5)
Construct: Cortical and pancreatic membranes were prepared as described; from tissue; host or cells: guinea pig cerebral cortex membranes
Sequence (H0VZC5 1-426): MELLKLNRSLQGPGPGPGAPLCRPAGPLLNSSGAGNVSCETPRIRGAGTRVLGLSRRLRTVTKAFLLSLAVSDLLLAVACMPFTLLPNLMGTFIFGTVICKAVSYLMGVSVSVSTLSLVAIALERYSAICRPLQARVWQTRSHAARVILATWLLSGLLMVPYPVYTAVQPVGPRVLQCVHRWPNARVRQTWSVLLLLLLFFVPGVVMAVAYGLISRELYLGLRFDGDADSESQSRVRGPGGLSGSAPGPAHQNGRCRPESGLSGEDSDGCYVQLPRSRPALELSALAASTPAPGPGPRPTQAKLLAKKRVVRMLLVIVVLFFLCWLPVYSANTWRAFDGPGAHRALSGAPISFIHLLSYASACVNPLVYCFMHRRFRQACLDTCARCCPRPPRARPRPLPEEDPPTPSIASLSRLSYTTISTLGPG
Procedure Details: Radioligand binding ([125I]Bolton-Hunter CCK8) in guinea pig cerebral cortical membranes
Experimental Conditions: displacement of [125I]BH-CCK8, cortical membranes, 30°C for 150 min, Hill analysis; read-out: IC₅₀ (nM) cortex
Square brackets hold non-standard residues; d marks the D form. Peptide text beside a SMILES is read from it. * marks the point of attachment. Ala(1H-tetrazol-5-yl) = N[C@@H](Cc1nnn[nH]1)C(=O)O; 2Nal = N[C@@H](Cc1ccc2ccccc2c1)C(=O)O; Tic = O=C(O)[C@@H]1Cc2ccccc2CN1; Boc = CC(C)(C)OC(=O)*
Rule for this label: y means IC50 is less than 10 nM; n means IC50 is at least 10 nM.

// below: answered compounds
CC(C)C[C@H](NC(=O)[C@H](Cc1c[nH]c2ccccc12)NC(=O)OC(C)(C)C)C(=O)N[C@@H](CC(=O)O)C(=O)NC(=Cc1ccccc1)C(N)=O [Example 19, Boc-Trp-Leu-Asp-(dehydro)Phe-NH₂] :: n
CCC[C@H]1CCN(C(=O)[C@@H]2Cc3c[nH]c4cccc(c34)CC(=O)N2)[C@@H]1C(=O)N[C@@H](CC(=O)O)C(=O)N[C@@H](Cc1ccccc1)C(N)=O :: y
CC(C)C[C@H](NC(=O)[C@H](Cc1ccc2ccccc2c1)NC(=O)OC(C)(C)C)C(=O)N[C@@H](CC(=O)O)C(=O)N[C@@H](Cc1ccccc1)C(N)=O [Example 50, Boc-β-Nal-Leu-Asp-Phe-NH₂] (Boc-[2Nal]LDF-NH2) :: n
CCC[C@H]1CCN(C(=O)[C@H](Cc2c[nH]c3ccccc23)NC(=O)OC(C)(C)C)[C@@H]1C(=O)N[C@@H](CC(=O)O)C(=O)N[C@@H](Cc1c[nH]c2ccccc12)C(N)=O :: y
CCC[C@H]1CCN(C(=O)[C@@H]2Cc3c[nH]c4cccc(c34)CC(=O)N2)[C@@H]1C(=O)N[C@@H](CC(=O)O)C(=O)N[C@@H](Cc1cccc2ccccc12)C(N)=O :: y
CC(C)C[C@H](NC(=O)[C@H](Cc1c[nH]c2ccccc12)NC(=O)OC(C)(C)C)C(=O)N[C@@H](Cc1nnn[nH]1)C(=O)N[C@@H](Cc1ccccc1)C(N)=O [Example 9] (Boc-WL[Ala(1H-tetrazol-5-yl)]F-NH2) :: n
CC(C)C[C@H](NC(=O)[C@H](Cc1c[nH]c2ccccc12)NC(=O)OC(C)(C)C)C(=O)N[C@@H](CC(=O)O)C(=O)N1Cc2ccccc2C[C@H]1C(N)=O [Example 2, Boc-Trp-Leu-Asp-Tiq-NH₂] (Boc-WLD[Tic]-NH2) :: n

Next, consider the following compound.
[Q] Bench note: check whether CCC[C@H]1CCN(C(=O)[C@@H]2Cc3c[nH]c4cccc(c34)CC(=O)N2)[C@@H]1C(=O)N[C@@H](CC(=O)O)C(=O)N(C)[C@@H](Cc1ccccc1)C(N)=O shows IC50 below 10 nM
[A] y
